Experiment: Toxicity liver stage against HepG2, at 10uM
Format: cell-based
Parameters: test concentration 10 uM, cell line HepG2-A16-CD81EGFP
Details: human, HepG2-A16-CD81EGFP cells; read-out: INHIBITION
measured-attribute: cytotoxicity at 10 µM (%)
Respond with the bare value in %.

CCc1nc(C2CCCN(C(=O)c3cnn(CC)c3)C2)no1 (stereo unspecified) | 4.16
CCCN(Cc1cccnc1)C(=O)C1CCN(Cc2ccco2)CC1 | 0.376
CC(C)(C)n1ncc2c1NC(=O)CSC2c1ccc2c(c1)OCO2 (stereo unspecified) | 0.148
COCC1CCCN(C(=O)c2ccccc2NCc2cccnc2)C1 (stereo unspecified) | 8.47
CC(=O)Nc1nc2c(s1)CN(CC(=O)Nc1ccc(C)c(Cl)c1)CC2 | -6.17

Pending molecule:
Data point: COc1ccc(Cl)cc1NCC(=O)N(Cc1ccncc1)C1CC1 ; cytotoxicity at 10 µM = 13.7

###

Experiment: Toxicity liver stage against HepG2, at 10uM
Format: cell-based
Design: test concentration 10 uM, cell line HepG2-A16-CD81EGFP
Settings: human, HepG2-A16-CD81EGFP cells; read-out: INHIBITION
measured-attribute: cytotoxicity at 10 µM
# answer = value followed by unit

Example molecules with recorded cytotoxicity at 10 µM:
Cc1ccc(S(=O)(=O)N2CCC3(CC(C(=O)NCC4CC4)=NO3)C2)cc1 (stereo unspecified) | 4.35%
Cc1cnc(-c2nc(NC3CC3)ncc2-c2onc(C)c2C)cn1 | -27.9%
Cc1ccccc1CCCN(C)S(C)(=O)=O | 5.41%
O=C(NCC1CC1)[C@H]1C[C@H]2CN(S(=O)(=O)Cc3ccccc3)C[C@@H]1O2 | 7.56%
Cc1ccc(NS(=O)(=O)c2cc3c(c(C(=O)O)c2)OCCO3)cc1F | -5.77%

Data point: COCc1ccccc1NC(=O)c1ccoc1 ; cytotoxicity at 10 µM = -2.17%

Data point: COCCN1C(=O)C[C@@H]2[C@H]1CCN2C(=O)c1ccc[nH]1 ; cytotoxicity at 10 µM = -1.34%

Data point: CN1CCN(c2ccc(NCc3ccc([S+](C)[O-])cc3)cn2)CC1 (stereo unspecified) ; cytotoxicity at 10 µM = 9.84%

Data point: O=C(c1ccco1)N1CCc2ncc(CN3CCOCC3)n2CC1 ; cytotoxicity at 10 µM = -78.7%

Data point: O=C1[C@H]2CN(Cc3cccs3)C[C@H]2CN1CCN1CCCC1 ; cytotoxicity at 10 µM = -12.7%

Data point: Cn1c(=O)[nH]c(=O)c2c1nc1n2CC(c2ccc(Br)cc2)O1 (stereo unspecified) ; cytotoxicity at 10 µM = -1.41%

###

Assay: Toxicity liver stage against HepG2, at 10uM
Assay type: cell-based
Parameters: test concentration 10 uM, cell line HepG2-A16-CD81EGFP
Settings: human, HepG2-A16-CD81EGFP cells; read-out: INHIBITION
# key: entry, value: cytotoxicity at 10 µM
Respond with the bare value in %.

Example compounds with recorded cytotoxicity at 10 µM:
CCC1(CC)CC(=O)N(CC(O)c2cccc(Br)c2)C1=O (stereo unspecified) | 3.89
Cc1c[nH]c(CN(C)C(C(=O)O)c2c(F)cccc2Cl)n1 (stereo unspecified) | -41.7
COCCNC(=O)Cn1nc(C(C)C)c2cnn(C(C)(C)C)c2c1=O | -21.9
COc1cccc(CN2CCCC3(CCN(C(=O)[C@H]4CCCO4)C3)C2)c1 (stereo partly specified) | 5.01
CCc1nc2n(n1)CC(NCc1cc(OC)c3c(c1)OCO3)CC2 (stereo unspecified) | 4.23

Data point: Cc1nc(C2(NCc3ccc(C#N)cc3F)CCCCC2)no1 ; cytotoxicity at 10 µM = -11.2

###

# key: entry, value: cytotoxicity at 10 µM
Test: Toxicity liver stage against HepG2, at 10uM
Assay type: cell-based
Set-up: test concentration 10 uM, cell line HepG2-A16-CD81EGFP
Details: human, HepG2-A16-CD81EGFP cells; read-out: INHIBITION
Respond with the bare value in %.

Example molecules with recorded cytotoxicity at 10 µM:
COc1ncc(C2(O)CCN(Cc3cccs3)CC2)c(OC)n1 | 1.9
CC(C)n1[nH]c(=O)c2c1NC(=O)CC2c1cccc(Br)c1 (stereo not drawn) | 5.28
c1ccc(-n2cc(CNC3CCc4ncnn4C3)cn2)cc1 (stereo not drawn) | -26.6
COc1ccc(NC(=O)N2CCC3(CC2)NC(=O)CC3C(=O)O)c(C)c1 (stereo not drawn) | -7.34
CCCn1c(C)c(CC(=O)N[C@H](C)C(=O)OC)c2c1CC(C)(C)CC2=O | -2.06

Data point: Cc1ccc(N2CC[C@@H]3[C@@H]2CCN3C(=O)c2cscn2)nn1 ; cytotoxicity at 10 µM = 5.38

Data point: Cn1c(NC(=O)CNC(=O)C2CC2)nc2cc(Cl)ccc21 ; cytotoxicity at 10 µM = 3.66

Data point: O=C(NC1CC1)[C@H]1C[C@@H]2CCN(Cc3ccc4c(c3)OCO4)C[C@@H]2O1 ; cytotoxicity at 10 µM = 0.782

Data point: O=c1c2cnc(N3CCCCC3)nc2ccn1-c1ccccc1F ; cytotoxicity at 10 µM = 2.77

Data point: O=C(CCC(F)(F)F)N1CCCC2(CCC(=O)N(CC3CC3)C2)C1 (stereo not drawn) ; cytotoxicity at 10 µM = 7.4

Data point: Cc1nc2cc(=O)[nH]n2c(C)c1CC(=O)NCCCc1ccccc1 ; cytotoxicity at 10 µM = -7.33

Data point: CC(=O)c1cccc(NC(=O)C2CN(S(=O)(=O)C3CC3)C2)c1 ; cytotoxicity at 10 µM = 3.62

Data point: CN(C)[C@@H]1CN(Cc2ccoc2)C[C@@H]2CCCO[C@@H]21 ; cytotoxicity at 10 µM = 1.93

Data point: CN(Cc1ccccc1O)CC1CCCN(CCc2ccc(Cl)cc2)C1 (stereo not drawn) ; cytotoxicity at 10 µM = -10.1

###

Experiment: Toxicity liver stage against HepG2, at 10uM
Type: cell-based
Parameters: test concentration 10 uM, cell line HepG2-A16-CD81EGFP
Conditions: human, HepG2-A16-CD81EGFP cells; read-out: INHIBITION
measured-attribute: cytotoxicity at 10 µM (%)
Respond with the bare value in %.

Data point: O=C(CC1CCN(c2ncnc3cccc(F)c23)CC1)N1CCCC1 ; cytotoxicity at 10 µM = 7.28

Data point: CCNS(=O)(=O)c1ccc(C)c(C(=O)N(C)Cc2ccccc2C)c1 ; cytotoxicity at 10 µM = 0.997

Data point: CCN(CC)CCCNc1nc(C)nc2c1CCN(C)C2 ; cytotoxicity at 10 µM = 3.19

Data point: CC1(NC(=O)CNC(=O)C(C)(C)C)CCc2ccccc2C1 (stereo unspecified) ; cytotoxicity at 10 µM = -3.67

Data point: Cc1cccnc1CNc1ccc(C(=O)N2CCc3ccccc32)cn1 ; cytotoxicity at 10 µM = -0.608

Data point: c1cncc(C(Cn2cnnc2)N2CCOCC2)c1 (stereo unspecified) ; cytotoxicity at 10 µM = -5.11

###

Assay: Toxicity liver stage against HepG2, at 10uM
Format: cell-based
Design: test concentration 10 uM, cell line HepG2-A16-CD81EGFP
Conditions: human, HepG2-A16-CD81EGFP cells; read-out: INHIBITION
measured-attribute: cytotoxicity at 10 µM (%)
Respond with the bare value in %.

Example compounds with recorded cytotoxicity at 10 µM:
O=C(NCCc1cccnc1)N1CCCC1c1ccsc1 (stereo not given) | -6.82
O=C(CN1CCCS1(=O)=O)Nc1cccc(COC2CCCCC2)c1 | 0.568
CN(C)c1cc(C2CCCN(Cc3cnn(C)c3)C2)ccn1 (stereo not given) | -1.88
COc1cccc(-c2n[nH]cc2CNCC2CCS(=O)(=O)C2)c1 (stereo not given) | -3.54

Data point: CNC(=O)c1cc2ccccc2n1C ; cytotoxicity at 10 µM = 6.84

Data point: O=C1NCC(c2ccc(Cl)cc2)Cc2[nH]c(CCN3CCOCC3)nc21 (stereo not given) ; cytotoxicity at 10 µM = -5.68

Data point: CN(C)[C@@H]1CO[C@H](CNC(=O)C2CCCC2)[C@H]1O ; cytotoxicity at 10 µM = -0.321

Data point: O=C(Cn1cnc2cc3c(cc21)OCCCO3)NC1CCCC1 ; cytotoxicity at 10 µM = 3.92

Data point: COCCc1nnc(NC(=O)CCCc2ccccc2)o1 ; cytotoxicity at 10 µM = -4.34

###

# key: entry, value: cytotoxicity at 10 µM
Test: Toxicity liver stage against HepG2, at 10uM
Format: cell-based
Set-up: test concentration 10 uM, cell line HepG2-A16-CD81EGFP
Details: human, HepG2-A16-CD81EGFP cells; read-out: INHIBITION
# answer = value followed by unit

Example compounds with recorded cytotoxicity at 10 µM:
OCCN1CCN(CC(O)c2ccc(C(F)(F)F)cc2)CC1 (configuration not stated) | -10%
C[C@]1(O)CN(Cc2cscn2)CC[C@@H]1Oc1cccc(F)c1 | 7.08%
CN1CCN(CCCNC(=O)C2CCCCC2)CC1 | -1.82%
CN1C(=O)CO[C@H]2CN(C(=O)Nc3ccc(F)cc3)C[C@H]21 | -2.22%

Data point: CSc1ccc(C(=O)N2CCOCC2c2c(C)n[nH]c2C)o1 (configuration not stated) ; cytotoxicity at 10 µM = -10.3%

Data point: CC(C)C(Sc1nnnn1-c1ccccc1)C(=O)NCc1cccnc1 (configuration not stated) ; cytotoxicity at 10 µM = -3.02%

Data point: Cn1cnnc1C1CCCN(C(=O)NCc2ccccc2)C1 (configuration not stated) ; cytotoxicity at 10 µM = -14%

Data point: CCOCCN1CCN(C(C)c2nc(C3CC3)no2)CC1 (configuration not stated) ; cytotoxicity at 10 µM = -4.51%

Data point: c1cc(CN2C[C@H](OCC3CCOCC3)[C@H]3COC[C@H]32)co1 ; cytotoxicity at 10 µM = -4.8%

Data point: O=C(NCc1ccccc1CO)Nc1ccc2c(c1)CCO2 ; cytotoxicity at 10 µM = 11.4%

Data point: O=C(c1cccs1)N1CCCC(c2cc(C(F)F)n3ncnc3n2)C1 (configuration not stated) ; cytotoxicity at 10 µM = -23.4%

Data point: COC(=O)c1cccc(C(=O)N2CCN(c3cc(C)ccc3C)CC2)n1 ; cytotoxicity at 10 µM = 7.8%
